Field: GI50. Provide a value for each of the molecules that follow.
# Test system: SF-539
# assay-remarks: NCI tumour cell line growth inhibition, 48 h
Structures can show the parent of a compound that is named as a salt. Calls of active or inactive are those of the source. No stated cut-off is given here; in the data, active = GI50 up to about 1.1 µM and inactive = higher.

Which GI50 reading was recorded for the molecule O=C(Nc1ccccc1)OCCN=C1c2ccccc2CCc2ccccc21 ?
18.2 µM (inactive)

// same read-out, input: CCc1ccc2c(c1)N(CC(C)CN(C)C)c1ccccc1S2 (centres undefined) [ETYMEMAZINE HYDROCHLORIDE]
10.2 µM (inactive)

Next molecule: O=C(Nc1ccc(C2=NCCN2)cc1)c1cncc(C(=O)Nc2ccc(C3=NCCN3)cc2)c1
> 100 µM (inactive)

Item: CC1CC(Nc2ccc(Br)cc2)N(C(=O)c2ccc(Br)cc2)O1 (centres undefined)
3.52 µM (inactive)

Further, for NC(CCC(=O)NC(CSC(=O)N(O)c1ccc(Br)cc1)C(=O)NCC(=O)O)C(=O)O (centres undefined) ?
> 50 µM (inactive)

Now consider COc1ccc(N2C(=O)C3c4[nH]c5ccc(OCc6ccccc6)cc5c4C4CCC(C(C)(C)C)CC4C3C2=O)cc1 (centres undefined) .
46 µM (inactive)

Next up: CC(C)[Si](OCC1CC(C[C@H]2CC(C[C@H]3C[C@@H](CO[Si](C(C)C)(C(C)C)C(C)C)OC(C)(C)O3)OC(C)(C)O2)OC(C)(C)O1)(C(C)C)C(C)C (some centres undefined)
> 100 µM (inactive)

Next record, please: CC(=O)OC(=O)O/C=C\CCl
> 100 µM (inactive)

Here is the next molecule: CC(C)(C)C1CCP(=O)(c2ccccc2)CC1 (centres undefined)
> 100 µM (inactive)

###

# Tested on: Hs-578T
# assay-remarks: NCI tumour cell line growth inhibition, 48 h
The source made the active and inactive calls. No stated cut-off is given here; in the data, active = GI50 up to about 1.1 µM and inactive = higher.
API: response.call in 1.0 (active), 0.0 (inactive)

Which result was noted for this compound in the test: CCOC(=O)/C(=C\NC(C)(C)C)c1nc2ccccc2[nH]1
0.0

Please do the same for CC(=O)OC(C(=O)NNC(=O)OC(C)(C)C)c1ccccc1 (stereo not given) as well.
0.0

Queued: CC(=O)/N=C1/N(/C=C2\C(=O)Oc3ccccc3C2=O)C(=O)/C(=C/c2ccc(Cl)cc2Cl)N1C
1.0

What about this compound? CC(C)=CCc1c(O)c(CC=C(C)C)c2oc3c(c(=O)c2c1O)C(C=C(C)C)Oc1cc(O)ccc1-3 (stereo not given)
0.0

Param item: OC1CCC(C2C3CCCCC3C3CCCCC3C2C2CCC(O)CC2)CC1 (stereo not given)
0.0

Do the same for COC(=O)CN1C(=O)C2(C(=O)OC)OC1(c1ccc([N+](=O)[O-])cc1)C1C(=O)N(c3ccccc3)C(=O)C12 (stereo not given) please
0.0

Could you do the same for Clc1ccc(-c2cc3nc4ccccc4nc3o2)cc1 , please?
0.0

Can you check CC1(C)C=Cc2c(cc(O)c3c(=O)c4cc(Cl)ccc4[nH]c23)O1 next?
1.0

# iterate: O=C1c2ccc3c4ccc5c6c(ccc(c7ccc(c2c37)C(=O)N1CCN1CCCCC1)c64)C(=O)N(CCN1CCCCC1)C5=O
0.0

Check Cc1ccc(S(=O)(=O)OC2C(C3COC(C)(C)O3)OC3OC(C)(C)OC32)cc1 (stereo not given) too.
0.0

Now consider O=C(c1ccccc1)N1CCC(Nc2nccs2)O1 (stereo not given) and answer again.
0.0

Also Cc1ccc(S(=O)(=O)Nc2ccccc2C(=O)c2ccc(C)c(C)c2)cc1 , if possible.
0.0

Please do the same for CC(=O)Oc1ccc2ccc(=O)oc2c1OC(C)=O as well.
0.0

Next compound up: COc1ccccc1NC(=O)O/N=C(/Cl)C(C)C
0.0

Try this compound too: C=CCN1CCN([C@H](c2ccc(C(=O)N(CC)CC)cc2)c2cccc(OC)c2)CC1
0.0

Entry C[C@H](CSC(=O)c1ccccc1)C(=O)N1c2ccccc2C[C@H]1C(=O)O please
0.0

Entry to check: CC1C(c2ccccc2)OP(=O)(OC(C#N)c2ccccc2)N1C (stereo not given)
0.0

Follow-up entry: C/C=C\C(CC(=O)NCCC1CN(C(=O)c2ccccc2)c2ccccc21)CC(=O)OC (stereo not given)
0.0

Quick one: NCCNc1nc(N2CCCC2)c2nc(Cl)c(NCc3ccccc3)nc2n1
0.0

Consider next the compound O=[N+]([O-])c1cccc2nc3ccccc3c(NCCC[N+]3([O-])CCCCC3)c12 in the same way.
1.0

Likewise for O=c1c2c3c(sc2nc2n1N=CN(c1ccc(Cl)cc1)C2)CCCC3 ?
0.0

Would you kindly repeat that for COC1=C2C=[N+](C)C3C(=C2C=CC1OC)Cc1cc2c(cc13)OCO2 (stereo not given) ?
0.0

Try this compound too: CCCCn1c2c(n(CCCC)c1=S)-c1c(n(CCCC)c(=S)n1CCCC)SSSS2
0.0

// next record COc1cccc2c(Nc3ccc(S(=O)(=O)NC(C)=O)cc3)c3ccc([N+](=O)[O-])cc3nc12
0.0

Same read-out for O=[N+]([O-])/C(C(Cl)=C(Cl)Cl)=C(/Cl)SCc1ccccc1 ?
0.0

###

Could you please report measured GI50 for the items listed next?
# Test system: HCC 2998
# assay-remarks: NCI tumour cell line growth inhibition, 48 h
Active and inactive are the calls of the source. Rule as the data show it: active = GI50 up to about 1.1 µM and inactive = higher.

Form field - read-out: GI50; system: HCC 2998; submitted item: NC(=S)NNc1c([N+](=O)[O-])cnn(-c2ccccc2)c1=O
18.7 µM (inactive)

Do the same for Nc1ccn(C=C=CCO)c(=O)n1 please
> 78.5 µM (inactive)

Next entry: N#Cc1c(NC(=S)Nc2ccc(Cl)cc2)sc2c1CCN(N1CCc3c(sc(NC(=S)Nc4ccc(Cl)cc4)c3C#N)C1)C2
50.2 µM (inactive)

Another compound to look at: COc1cc2c[n+]3ccc4cc(OC)c(OC)cc4c3cc2cc1O
> 100 µM (inactive)

Note, next up: COc1cc(-c2oc3c(OC)c(O)c(OC)c(O)c3c(=O)c2OC)cc(OC)c1OC
52.4 µM (inactive)

Next compound: O=C1OC(c2ccco2)=N/C1=C\c1cccc([N+](=O)[O-])c1
> 100 µM (inactive)

Param item: CN1CCN(c2ccc3nc(C4=C(O)C(=O)c5c(nc(CCl)n5C)C4=O)[nH]c3n2)CC1
5.89 µM (inactive)

Same question, C[N+](C)(C)CC(=O)N/N=C(/CC(=O)CC(C1=C(O)c2ccccc2OC1)c1ccccc1)C(=O)Nc1cccc(Cl)c1 (stereo unspecified) this time
> 100 µM (inactive)

O=C(O)/C=C/c1c[nH]cn1 ?
> 500 µM (inactive)

Try this compound too: C(=C/c1nnnn1-c1ccccc1)/Nc1ccccc1
21.7 µM (inactive)

Could you do the same for N=C(N)N/N=C\c1c(-c2cccc([N+](=O)[O-])c2)nc2sccn12 , please?
2.39 µM (inactive)

What do you have for COc1ccc(/N=N/c2c(-c3c(OC)cc4occc4c3OC)[nH]c(=O)c(C#N)c2C)cc1 ?
> 100 µM (inactive)

Further, for CC(=O)Oc1ccc2c3c1[C@@H]1O[C@@H]1c1cccc(c1-3)[C@@H]1O[C@H]21 ?
2 µM (inactive)

Okay, and CC(C)(C)OC(=O)NCCCCCCC(=O)Cc1ccccc1 ?
> 100 µM (inactive)

Then this compound: O=[N+]([O-])/C(C(Cl)=C(Cl)Cl)=C(/Cl)SCc1ccccc1
24.8 µM (inactive)

Now consider CCCCn1c2c(n(CCCC)c1=S)-c1c(n(CCCC)c(=S)n1CCCC)SSSS2 .
7.59 µM (inactive)

For Cc1cc2c(=O)cc(-c3ccc(C(=O)O)cc3)oc2c(C(N)=O)c1C then?
> 100 µM (inactive)

Lookup Cn1c(CCC#N)nc2ccc(Br)cc2c1=O
> 100 µM (inactive)

Next entry: COc1ccc(N2C(=O)C3c4[nH]c5ccc(OCc6ccccc6)cc5c4C4CCC(C(C)(C)C)CC4C3C2=O)cc1 (stereo unspecified)
> 100 µM (inactive)

Same question for COc1cccc(NC(=O)CC(=O)N2N=C(N(CCC#N)c3ccc(Cl)cc3)CC2c2ccccc2)c1 (stereo unspecified) please.
> 100 µM (inactive)

# iterate: CN1C[C@H]2[C@@H](C1=O)[C@H](c1ccccc1)ON2C
> 100 µM (inactive)

Try the compound Cc1cc(O)c2c(c1)C(O)(c1ccc3c(c1O)C(=O)c1c(O)cc(C)cc1C3(O)C1OC(CO)C(O)C(O)C1O)c1cccc(O)c1C2=O (stereo unspecified)
16 µM (inactive)

Please answer likewise for CC(C)[Si](OC1=C(c2ccccc2)C(NC(=O)/C=C/c2ccc([N+](=O)[O-])cc2)CCC1)(C(C)C)C(C)C (stereo unspecified)
> 100 µM (inactive)

Then what about the compound CC(C)=CC(=O)O[C@@H]1CC(C)(C)CC2C3=CCC4[C@]56CC[C@](O)(OC5)C(C)(C)C6CC[C@@]4(C)C3(C)CC[C@]21C(=O)O (stereo partly specified) ?
> 100 µM (inactive)

Same read-out for COc1ccc(-c2cc(C(O)C3CCCCN3)c3ccccc3n2)cc1 (stereo unspecified) ?
2.19 µM (inactive)

# iterate: COC(=O)N/N=C(/Cc1occc(=O)c1O)C(=O)Nc1ccc([N+](=O)[O-])cc1[N+](=O)[O-]
> 100 µM (inactive)

Then this compound: N#Cc1c(-c2ccc(Cl)cc2)cc(-c2ccc(Nc3ccnc4cc(Cl)ccc34)cc2)[nH]c1=O
> 100 µM (inactive)

Do the same for Cc1ccc(C(=O)c2[nH]c(Nc3ccc(Cl)cc3)c(C(=S)Nc3ccccc3)c2N)cc1 please
2.29 µM (inactive)

Then what about the compound CC(=O)N(CCN1C(=O)c2ccccc2C1=O)CCN1C(=O)c2ccccc2C1=O ?
> 100 µM (inactive)

Could you do the same for COc1ccc2c(c1)CN1C(=N2)CSC1c1ccccc1Cl (stereo unspecified) , please?
14.4 µM (inactive)

# repeat for CC(C)OP(=O)(OC(C)C)/C(Cl)=N/Nc1ccc([N+](=O)[O-])cc1
> 100 µM (inactive)

Do the same for COc1ccc(N2/C(=N/c3ccccc3)SC(=N/S(=O)(=O)c3ccccc3)/C2=N\S(=O)(=O)c2ccccc2)cc1 please
17.3 µM (inactive)

Similarly, CCOP(=O)(OCC)/C(C#N)=C/c1cccn1Cc1ccccc1 ?
35.3 µM (inactive)

Now this one: CCCCC(C(=O)CCC(=O)Nc1ccc(Cl)cc1)C(=O)C(C)C (stereo unspecified)
> 100 µM (inactive)

Also COc1cc([C@@H]2c3cc4c(cc3[C@@H](NC(=O)c3cccc(F)c3)C3COC(=O)[C@@H]32)OCO4)cc(OC)c1O (stereo partly specified) ?
2.66 µM (inactive)

How about this compound: O=C(c1ccccc1)N1CCC(Nc2nccs2)O1 (stereo unspecified)
> 10 µM (inactive)
